These data points were gathered from ChEMBL document CHEMBL4513216.

compounds and their reported cytotoxicity at 10 µM
assay: Toxicity liver stage against HepG2, at 10uM; assay type: cell-based; set-up: test concentration 10 uM, cell line HepG2-A16-CD81EGFP; details: human, HepG2-A16-CD81EGFP cells; read-out: INHIBITION
measured_endpoint: cytotoxicity at 10 µM (%)

[[record]]
compound = "COc1cccc(CN2CCC(c3cc(O)nc(C)n3)C2)c1 (stereo not given)"
assay_result = -0.542

[[record]]
compound = "Cc1noc(C(C)SCc2ccccn2)n1 (stereo not given)"
assay_result = -6.67

[[record]]
compound = "CC(C)(C)CNC(=O)c1ccc(C(=O)O)cn1"
assay_result = -4.01

[[record]]
compound = "N#CCCN(Cc1cccnc1)C(=O)c1ccc(-n2cnnn2)cc1"
assay_result = 4.59

[[record]]
compound = "CS(=O)(=O)N1CCN(c2ccc3ccc(C(=O)NC4CC4)cn23)CC1"
assay_result = -0.39

[[record]]
compound = "O=C(CCCN1CCOC1=O)Nc1cnn(-c2ccccc2Cl)c1"
assay_result = -4.56

[[record]]
compound = "CCc1cnc(CN(C)C2CCN(Cc3nnc(C4CC4)n3C)C2)o1 (stereo not given)"
assay_result = -5.09

[[record]]
compound = "CC(C)(C)NC(=O)N1CCN2C(=O)OCC2C1 (stereo not given)"
assay_result = -1.96

[[record]]
compound = "Cc1cc(CN2CCN(C(=O)NC(C)Cn3cccn3)CC2)no1 (stereo not given)"
assay_result = -7.45

[[record]]
compound = "NC(=O)c1c(NC(=O)CCC(=O)O)sc2c1CCc1ccccc1-2"
assay_result = -1.99

[[record]]
compound = "Cc1cc(C(=O)Nc2ccc(-c3nnc(N(C)C)o3)cc2)oc1C"
assay_result = 0.11

[[record]]
compound = "O=C(NCc1cncc2c1CCN(Cc1ccccc1)C2)C1CC1"
assay_result = 12.1

[[record]]
compound = "Cc1ccc(C(=O)N2CCCCC2CN(C)C)cc1 (stereo not given)"
assay_result = -9.98

[[record]]
compound = "CCc1nnc(CS(=O)(=O)c2ccc(C)c(C)c2)n1C"
assay_result = 0.617

[[record]]
compound = "O=C(c1ncoc1-c1ccco1)N(Cc1ccco1)CC1CCCO1 (stereo not given)"
assay_result = -2.05

[[record]]
compound = "CC(C)(CNc1ccc(C#N)c(C(F)(F)F)c1)C(N)=O"
assay_result = 20.2

[[record]]
compound = "Cc1cncc(C(=O)N2CCCC(O)(CN(C)C)CC2)c1 (stereo not given)"
assay_result = 6.22

[[record]]
compound = "CN(C)S(=O)(=O)c1ccc(CN2CCCC2c2ccccc2)o1 (stereo not given)"
assay_result = -5.72

[[record]]
compound = "COc1ccc(CC(=O)N2CCCC(n3nc(C)cc3C)C2)cc1 (stereo not given)"
assay_result = 0.471

[[record]]
compound = "CSc1nccc(-c2cccc(-c3ccn(CC4COCCO4)n3)c2)n1 (stereo not given)"
assay_result = -7.92

[[record]]
compound = "CCOc1ncccc1NC(=O)N1CCC(n2cncn2)CC1"
assay_result = 6.64

[[record]]
compound = "COCC(C)N(C)C(=O)c1nc(S(C)(=O)=O)n2ccccc12 (stereo not given)"
assay_result = -11

[[record]]
compound = "Cc1cc(O)nc(C2CCCN(Cc3ccncc3)C2)n1 (stereo not given)"
assay_result = -2.81

[[record]]
compound = "Cc1nc(-c2ccc(Cl)s2)sc1C(=O)O"
assay_result = 7.51

[[record]]
compound = "CC(=O)N1CCC(c2cccc(-c3cccc(C(=O)O)c3)n2)CC1"
assay_result = -0.0353

